Hello, the source for this data is patent EP4810493A1, in case you need it.

experimental details: Pharmacokinetic determination in Balb/c mice
recorded conditions: mouse, in vivo, po; male Balb/c mice, p.o. 5 mg/kg
Please respond with reported Tmax for every item in the list.
Answers are plain numbers, in min.

{"compound": "Cc1c2c(c3ncnn3c1C)CN(C(=O)CC1CN(c3ccnc(OC(F)F)c3)C1)C2 [Example 52]", "Tmax, min": 15}
{"compound": "Cc1c2c(c3ncnn3c1C)CN(C(=O)OC1CN(c3ccnc(C(F)F)c3)C1)C2 [Example 122]", "Tmax, min": 30}
{"compound": "Cc1c2c(c3ncnn3c1C)CN(C(=O)OC1CN(c3ccnc(OC(F)F)c3)C1)C2 [Example 123]", "Tmax, min": 30}
{"compound": "Cc1cn2nc(N3CC(OC(=O)N4Cc5c(C)c(C)n6ncnc6c5C4)C3)ccc2n1 [Example 105]", "Tmax, min": 30}
{"compound": "Cc1c2c(c3ncnn3c1C)CN(C(=O)OC1CN(c3ccnc(C(F)(F)F)c3)C1)C2 [Example 32]", "Tmax, min": 30}

input: Bench note: what Tmax did Cc1c2c(c3ncnn3c1C)CN(C(=O)CC1CN(c3ncc(C(F)(F)F)cn3)C1)C2 [Example 144] show?
output: 30

---

Please respond with reported AUC(0-inf) for every item in the list.
experimental details: Pharmacokinetic determination in SD rats
recorded conditions: rat, in vivo, po; male SD rats, p.o. 5 mg/kg
One number for each entry, in µg·h/mL.

The following compounds have reported results that may help.
{"compound": "COc1cc(N2CC(CC(=O)N3Cc4c(C)c(C)n5ncnc5c4C3)C2)c(Cl)cn1 [Example 147]", "result units": "µg·h/mL", "AUC(0-inf)": 3.26}
{"compound": "COc1cc(N2CC(CC(=O)N3Cc4c(C)c(C)n5ncnc5c4C3)C2)ccn1 [Example 236]", "result units": "µg·h/mL", "AUC(0-inf)": 6.71}
{"compound": "Cc1c2c(c3ncnn3c1C)CN(C(=O)CC1CN(c3ccc4c(cnn4C)c3)C1)C2 [Example 269]", "result units": "µg·h/mL", "AUC(0-inf)": 3.64}

input: Bench note: what AUC(0-inf) did Cc1c2c(c3ncnn3c1C)CN(C(=O)OC1CN(c3ccnc(C(F)F)c3)C1)C2 [Example 122] show?
output: 34.8

---

experimental details: Pharmacokinetic determination in SD rats
recorded conditions: rat, in vivo, po; male SD rats, p.o. 5 mg/kg
Please respond with reported Tmax for every item in the list.
Give bare numbers, in h.

{"structure notation": "Cc1c2c(c3ncnn3c1C)CN(C(=O)CC1CN(c3ccc4nc(C(F)F)cn4n3)C1)C2", "quantitative result": 1}

// input: 6 compounds below; output: Tmax for each
1. Cc1c2c(c3ncnn3c1C)CN(C(=O)OC1CN(c3ccnc(OC(F)F)c3)C1)C2
2. Cc1c2c(n3ncnc3c1Cl)CN(C(=O)CC1CN(c3ncc(C(F)(F)F)cn3)C1)C2
3. Cc1c2c(c3ncnn3c1C)CN(C(=O)OC1CN(c3ccc4nc(C(F)F)cn4n3)C1)C2
4. Cc1cn2nc(N3CC(OC(=O)N4Cc5c(C)c(C)n6ncnc6c5C4)C3)ccc2n1
5. Cc1c2c(c3ncnn3c1C)CN(C(=O)CC1CN(c3ccc4c(cnn4C)c3)C1)C2
6. Cc1c2c(c3ncnn3c1C)CN(C(=O)OC1CN(c3ccnc(C(F)F)c3)C1)C2

output:
1. 2
2. 4
3. 2
4. 1
5. 0.83
6. 2

// input: 7 compounds below; output: Tmax for each
1. Cc1c2c(c3ncnn3c1C)CN(C(=O)CC1CN(c3ccnc(OC(F)F)c3)C1)C2
2. CCn1ncc2cc(N3CC(CC(=O)N4Cc5c(C)c(C)n6ncnc6c5C4)C3)ccc21
3. Cc1c2c(c3ncnn3c1C)CN(C(=O)CC1CN(c3ncc(C(F)(F)F)cn3)C1)C2
4. COc1cc(N2CC(CC(=O)N3Cc4c(C)c(C)n5ncnc5c4C3)C2)ccn1
5. Cc1c2c(c3ncnn3c1C)CN(C(=O)OC1CN(c3ccnc(C(F)(F)F)c3)C1)C2
6. COc1cc(N2CC(OC(=O)N3Cc4c(C)c(C)n5ncnc5c4C3)C2)ccn1
7. COc1cc(N2CC(CC(=O)N3Cc4c(C)c(C)n5ncnc5c4C3)C2)c(Cl)cn1

output:
1. 2
2. 0.75
3. 2
4. 1.5
5. 2
6. 1
7. 1

---

experimental details: Pharmacokinetic determination in Balb/c mice
recorded conditions: mouse, in vivo, po; male Balb/c mice, p.o. 5 mg/kg
Outcome label depends on Cmax relative to 2000 ng/mL: at/above gives T, below gives F.

{"structure notation": "Cc1c2c(c3ncnn3c1C)CN(C(=O)OC1CN(c3ccnc(C(F)(F)F)c3)C1)C2", "qualitative label": "T"}

input: Does the reported Cmax for Cc1c2c(c3ncnn3c1C)CN(C(=O)OC1CN(c3ccnc(C(F)F)c3)C1)C2 fall at or above the 2000 ng/mL mark?
output: F

input: Now this one: Cc1cn2nc(N3CC(OC(=O)N4Cc5c(C)c(C)n6ncnc6c5C4)C3)ccc2n1
output: F

input: Now this one: Cc1c2c(c3ncnn3c1C)CN(C(=O)CC1CN(c3ncc(C(F)(F)F)cn3)C1)C2
output: F

input: Now this one: Cc1c2c(c3ncnn3c1C)CN(C(=O)OC1CN(c3ccnc(OC(F)F)c3)C1)C2
output: F

---

Please respond with reported EC50 for every item in the list.
target entity: M4 receptor (Homo sapiens, UniProt P08173)
Construct: expressed in transfected cells
Sequence (P08173 whole entry): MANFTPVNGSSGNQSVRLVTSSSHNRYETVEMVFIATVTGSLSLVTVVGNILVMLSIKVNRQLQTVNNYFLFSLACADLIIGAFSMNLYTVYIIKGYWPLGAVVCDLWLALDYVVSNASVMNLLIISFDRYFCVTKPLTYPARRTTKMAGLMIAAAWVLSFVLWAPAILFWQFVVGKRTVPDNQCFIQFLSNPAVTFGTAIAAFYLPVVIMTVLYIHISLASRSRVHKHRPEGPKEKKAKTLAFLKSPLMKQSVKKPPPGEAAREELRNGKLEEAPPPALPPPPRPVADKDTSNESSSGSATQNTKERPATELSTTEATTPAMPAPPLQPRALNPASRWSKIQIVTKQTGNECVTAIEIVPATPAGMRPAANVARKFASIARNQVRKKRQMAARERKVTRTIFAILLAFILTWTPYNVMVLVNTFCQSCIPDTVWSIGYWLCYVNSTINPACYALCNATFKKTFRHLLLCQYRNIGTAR
experimental details: Calcium flux (FLIPR) potentiation assay in cells stably expressing M4 receptor
Format: cell-based
Give bare numbers, in nM.

// input: 3 compounds below; output: EC50 for each
1. Cc1c2c(c3ncnn3c1C)CN(C(=O)CC1CN(c3ccc4c(ccn4C)c3)C1)C2
2. Cc1cn2nc(N3CC(OC(=O)N4Cc5c(C)c(C)n6ncnc6c5C4)C3)ccc2n1
3. Cc1cn2nc(N3CC(CC(=O)N4Cc5c(C)c(C)n6ncnc6c5C4)C3)ccc2n1

output:
28.1
19.9
18.1

---

Please respond with reported AUC(0-inf) for every item in the list.
experimental details: Pharmacokinetic determination in Balb/c mice
recorded conditions: mouse, in vivo, po; male Balb/c mice, p.o. 5 mg/kg
One number for each entry, in ng·h/mL.

The following compounds have reported results that may help.
{"structure notation": "Cc1c2c(c3ncnn3c1C)CN(C(=O)OC1CN(c3ccnc(C(F)F)c3)C1)C2", "AUC(0-inf), ng·h/mL": 6130}
{"structure notation": "Cc1cn2nc(N3CC(OC(=O)N4Cc5c(C)c(C)n6ncnc6c5C4)C3)ccc2n1", "AUC(0-inf), ng·h/mL": 10200}
{"structure notation": "Cc1c2c(c3ncnn3c1C)CN(C(=O)CC1CN(c3ncc(C(F)(F)F)cn3)C1)C2", "AUC(0-inf), ng·h/mL": 4790}
{"structure notation": "Cc1c2c(c3ncnn3c1C)CN(C(=O)OC1CN(c3ccnc(C(F)(F)F)c3)C1)C2", "AUC(0-inf), ng·h/mL": 7370}
{"structure notation": "Cc1c2c(c3ncnn3c1C)CN(C(=O)CC1CN(c3ccnc(OC(F)F)c3)C1)C2", "AUC(0-inf), ng·h/mL": 2540}

Turning now to a further record.
input: Bench note: what AUC(0-inf) did Cc1c2c(c3ncnn3c1C)CN(C(=O)OC1CN(c3ccnc(OC(F)F)c3)C1)C2 show?
output: 4160

---

experimental details: Pharmacokinetic determination in SD rats
recorded conditions: rat, in vivo, po; male SD rats, p.o. 5 mg/kg
measured property: Tmax (h)
One number for each entry, in h.

The following molecules have reported results that may help.
{"structure notation": "Cc1c2c(c3ccnn3c1C)CN(C(=O)CC1CN(c3ccnc(C(F)(F)F)c3)C1)C2", "measured property": "Tmax", "quantitative result": 2}
{"structure notation": "CCOc1ccc(N2CC(CC(=O)N3Cc4c(C)c(C)n5ncnc5c4C3)C2)cn1", "measured property": "Tmax", "quantitative result": 0.5}
{"structure notation": "Cc1c2c(c3ncnn3c1C)CN(C(=O)CC1CN(c3ccnc(OC4CC4)c3)C1)C2", "measured property": "Tmax", "quantitative result": 1}

Turning now to a further record.
input: Bench note: what Tmax did Cc1c2c(c3ccnn3c1C)CN(C(=O)OC1CN(c3ccnc(C(F)F)c3)C1)C2 show?
output: 2

---

Please respond with reported Cmax for every item in the list.
experimental details: Pharmacokinetic determination in SD rats
recorded conditions: rat, in vivo, po; male SD rats, p.o. 5 mg/kg
Give bare numbers, in ng/mL.

{"structure notation": "COc1cc(N2CC(OC(=O)N3Cc4c(C)c(C)n5ncnc5c4C3)C2)ccn1", "quantitative result": 1710}

// input: 3 molecules below; output: Cmax for each
1. Cc1c2c(c3ncnn3c1C)CN(C(=O)CC1CN(c3cnc4c(c3)COC4)C1)C2
2. Cc1c2c(c3ncnn3c1C)CN(C(=O)OC1CN(c3ccnc(C(F)F)c3)C1)C2
3. Cc1c2c(n3ncnc3c1Cl)CN(C(=O)CC1CN(c3ncc(C(F)(F)F)cn3)C1)C2

output:
1. 3500
2. 3110
3. 2140
